- Test system: KO-52 cells
- assaySummary: Proliferation assay, spheroid-like growth, KO-52 (MLL wildtype control cell line)
- Format: cell-based, human
- testParameters: Homo sapiens, 192 h, KO-52 control cells, 8 days, confluence as measure of spheroid size; read-out: spheroid assay_OneTime KO-52 IC50
pIC50: −log10 of the molar value.
outcomeMeasure: pIC50

CC(=O)N1CC2(C1)CN([C@H]1C[C@@H]([C@@H](C(C)C)N3CC4(CCN(c5ncnnc5Oc5ccc(F)cc5-c5cncnc5C5CC5)C4)C3)C1)C2 (single isomer, unassigned) :: 5.06
CC(=O)N1CCN([C@H]2C[C@@H]([C@@H](C(C)C)N3CC4(CCN(c5ncnnc5Oc5ccc(F)cc5-c5ncc(C#N)cc5C5CC5)C4)C3)C2)CC1 (single isomer, unassigned) :: 5.44
CC(C)[C@@H]([C@H]1C[C@@H](N2CC3(COC3)C2)C1)N1CC2(CCN(c3ncnnc3Oc3ccc(F)cc3-c3cnncc3C3CC3)C2)C1 (single isomer, unassigned) :: 5.30
CC(=O)N1CCC2C1CCN2[C@H]1C[C@@H]([C@@H](C(C)C)N2CC3(CCN(c4ncnnc4Oc4ccc(F)cc4-c4cncnc4C4CC4)C3)C2)C1 (single isomer, unassigned) :: 5.30

----------
- System: KO-52 cells
- assaySummary: Proliferation assay, spheroid-like growth, KO-52 (MLL wildtype control cell line)
- Type: cell-based, human
- testParameters: Homo sapiens, 192 h, KO-52 control cells, 8 days, confluence as measure of spheroid size; read-out: spheroid assay_OneTime KO-52 IC50
pIC50: −log10 of the molar value.
outcomeMeasure: pIC50

CC(C)C([C@H]1C[C@H](NCC(C)(C)O)C1)N1CC2(CCN(c3ncnnc3Oc3ccc(F)cc3-c3cncnc3C3CC3)C2)C1 (stereo partly shown) :: 4.88
CC(C)[C@@H](C1CC2(C1)CN(CC1COC1)C2)N1CC2(CCN(c3ncnnc3Oc3ccc(F)cc3-c3cncnc3C3CC3)C2)C1 (single isomer, unassigned) :: 5.11
CC(C)[C@@H]([C@H]1C[C@@H](N2CCC3(COC3)C2)C1)N1CC2(CCN(c3ncnnc3Oc3ccc(F)cc3-c3cccnc3C3CC3)C2)C1 (single isomer, unassigned) :: 6.51

----------
- Tested on: MOLM14 cells
- assaySummary: Proliferation assay, spheroid-like growth, MOLM14 (MLL-AF9 rearranged)
- Assay type: cell-based, human
- testParameters: Homo sapiens, MOLM-14, 192 h, 8 days, confluence as measure of spheroid size, read-out: spheroid assay_OneTime MOLM14 IC50
- Procedure: The anti-proliferative effect of menin/MLL protein/protein interaction inhibitor test compounds was assessed in human leukemia cell lines. […] In order to assess the anti-proliferative effects, 200 MOLM14 cells, or 300 KO-52 cells were seeded in 200 μl media per well in 96-well round bottom, ultra-low attachment plates (Costar, catalogue number 7007). […] Spheroid like growth was measured in real-time by live-cell imaging (IncuCyteZOOM, Essenbio, 4× objective) acquiring images at day 8. […]
outcomeMeasure: log10 of IC50 (log10 of the value in nM)

CC(C)[C@H]([C@H]1C[C@@H](N2CC[C@H](C(C)(C)O)C2)C1)N1CC2(CCN(c3ncnnc3Oc3ccc(F)cc3-c3cncnc3C3CC3)C2)C1 (single isomer, unassigned) :: 0.70
CC(=O)Nc1cncc(N[C@H]2C[C@@H](C(C(C)C)N3CC4(CCN(c5ncnnc5Oc5ccc(F)cc5-c5cncnc5C5CC5)C4)C3)C2)c1 (single isomer, unassigned) :: 1.28
CO[C@H]1CCN([C@H]2C[C@H](C(C(C)C)N3CC4(CCN(c5ncnnc5Oc5ccc(F)cc5-c5nnccc5C5CC5)C4)C3)C2)C1 (single isomer, unassigned) :: 1.57
CC(=O)Nc1cc(N[C@H]2C[C@@H](C(C(C)C)N3CC4(CCN(c5ncnnc5Oc5ccc(F)cc5-c5cncnc5C5CC5)C4)C3)C2)cnn1 (single isomer, unassigned) :: 1.32
CC(C)[C@H](C1CCN(CC2COC2)CC1)N1CC2(CCN(c3ncnnc3Oc3ccc(F)cc3-c3cncnc3C3CC3)C2)C1 (single isomer, unassigned) :: 2.08
CC(C)C([C@H]1C[C@@H](N2CCC3(COC3)C2)C1)N1CC2(CCN(c3ncnnc3Oc3ccc(F)cc3-c3cncnc3C3CC3)C2)C1 (stereo partly shown) :: 1.51
CNC(=O)c1oc(N[C@H]2C[C@@H](C(C(C)C)N3CC4(CCN(c5ncnnc5Oc5ccc(F)cc5-c5cncnc5C5CC5)C4)C3)C2)nc1C (single isomer, unassigned) :: 1.04
CC(C)[C@H]([C@H]1C[C@@H](Nc2ccnc(NS(C)(=O)=O)n2)C1)N1CC2(CCN(c3ncnnc3Oc3ccc(F)cc3-c3cncnc3C3CC3)C2)C1 (single isomer, unassigned) :: 2.34
